target: HiBit-WIZ fusion protein (Homo sapiens, UniProt O95785+Q96SW2); test: Quantification of WIZ protein levels in HiBit tag fusion protein assay (WIZ HiBit assay in 293T cells); type: cell-based; details: 100 minus Amax, at 25 uM; 293T cells
Sequence (O95785 whole entry, the tested form may be a part): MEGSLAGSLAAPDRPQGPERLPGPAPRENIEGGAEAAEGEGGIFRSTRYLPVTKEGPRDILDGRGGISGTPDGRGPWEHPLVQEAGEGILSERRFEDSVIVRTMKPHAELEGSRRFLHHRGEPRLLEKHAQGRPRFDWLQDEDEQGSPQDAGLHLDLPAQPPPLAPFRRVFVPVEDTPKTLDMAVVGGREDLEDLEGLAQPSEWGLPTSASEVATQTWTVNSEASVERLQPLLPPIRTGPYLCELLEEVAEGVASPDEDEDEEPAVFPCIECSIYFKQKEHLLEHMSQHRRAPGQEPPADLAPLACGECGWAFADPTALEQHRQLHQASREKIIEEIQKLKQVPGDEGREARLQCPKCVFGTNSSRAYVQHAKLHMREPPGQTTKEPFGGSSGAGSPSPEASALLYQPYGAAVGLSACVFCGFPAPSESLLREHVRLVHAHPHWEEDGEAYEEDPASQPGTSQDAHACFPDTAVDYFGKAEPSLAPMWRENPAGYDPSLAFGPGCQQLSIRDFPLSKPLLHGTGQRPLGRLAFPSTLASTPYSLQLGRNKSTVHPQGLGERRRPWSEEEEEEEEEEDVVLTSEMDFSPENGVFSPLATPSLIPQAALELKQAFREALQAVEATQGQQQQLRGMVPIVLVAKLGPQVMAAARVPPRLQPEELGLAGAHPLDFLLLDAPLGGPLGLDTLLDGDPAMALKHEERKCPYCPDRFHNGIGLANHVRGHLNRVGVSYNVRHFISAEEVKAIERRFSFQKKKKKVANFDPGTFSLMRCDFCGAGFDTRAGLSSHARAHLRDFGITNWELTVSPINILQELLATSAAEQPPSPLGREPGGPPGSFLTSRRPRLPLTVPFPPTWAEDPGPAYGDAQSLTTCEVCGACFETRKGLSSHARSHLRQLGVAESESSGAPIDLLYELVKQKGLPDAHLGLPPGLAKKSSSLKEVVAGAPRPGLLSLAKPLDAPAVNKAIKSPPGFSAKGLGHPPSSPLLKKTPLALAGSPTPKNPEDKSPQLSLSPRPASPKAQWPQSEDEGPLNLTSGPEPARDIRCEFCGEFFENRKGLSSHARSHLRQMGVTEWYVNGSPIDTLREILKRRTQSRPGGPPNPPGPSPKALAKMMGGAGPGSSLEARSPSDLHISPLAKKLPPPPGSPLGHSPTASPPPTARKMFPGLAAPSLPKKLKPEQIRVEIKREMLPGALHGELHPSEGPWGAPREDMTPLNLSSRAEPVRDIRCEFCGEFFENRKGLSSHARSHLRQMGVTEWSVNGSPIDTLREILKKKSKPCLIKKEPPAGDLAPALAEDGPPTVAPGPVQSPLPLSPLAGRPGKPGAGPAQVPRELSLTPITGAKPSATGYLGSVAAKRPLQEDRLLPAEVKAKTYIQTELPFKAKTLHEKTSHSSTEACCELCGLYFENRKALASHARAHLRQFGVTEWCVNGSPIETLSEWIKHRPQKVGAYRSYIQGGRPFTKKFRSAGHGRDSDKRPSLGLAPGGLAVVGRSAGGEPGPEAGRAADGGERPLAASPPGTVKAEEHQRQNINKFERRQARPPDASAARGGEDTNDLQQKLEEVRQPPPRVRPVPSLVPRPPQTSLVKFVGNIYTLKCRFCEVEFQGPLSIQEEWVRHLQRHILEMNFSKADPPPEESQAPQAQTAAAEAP
Sequence (Q96SW2 whole entry, the tested form may be a part): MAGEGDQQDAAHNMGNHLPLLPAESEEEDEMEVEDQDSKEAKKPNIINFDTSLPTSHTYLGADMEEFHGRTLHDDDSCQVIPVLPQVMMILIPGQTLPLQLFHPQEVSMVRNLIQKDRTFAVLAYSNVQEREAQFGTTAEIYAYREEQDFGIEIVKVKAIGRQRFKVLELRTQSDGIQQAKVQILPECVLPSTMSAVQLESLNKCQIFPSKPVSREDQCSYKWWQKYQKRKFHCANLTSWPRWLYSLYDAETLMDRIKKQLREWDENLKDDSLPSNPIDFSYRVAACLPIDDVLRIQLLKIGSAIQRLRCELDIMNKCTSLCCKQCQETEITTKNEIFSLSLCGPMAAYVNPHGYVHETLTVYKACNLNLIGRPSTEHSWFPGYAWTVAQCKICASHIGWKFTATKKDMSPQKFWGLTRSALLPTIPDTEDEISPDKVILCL
Sequence (Q16531 whole entry partner, the tested form may be a part): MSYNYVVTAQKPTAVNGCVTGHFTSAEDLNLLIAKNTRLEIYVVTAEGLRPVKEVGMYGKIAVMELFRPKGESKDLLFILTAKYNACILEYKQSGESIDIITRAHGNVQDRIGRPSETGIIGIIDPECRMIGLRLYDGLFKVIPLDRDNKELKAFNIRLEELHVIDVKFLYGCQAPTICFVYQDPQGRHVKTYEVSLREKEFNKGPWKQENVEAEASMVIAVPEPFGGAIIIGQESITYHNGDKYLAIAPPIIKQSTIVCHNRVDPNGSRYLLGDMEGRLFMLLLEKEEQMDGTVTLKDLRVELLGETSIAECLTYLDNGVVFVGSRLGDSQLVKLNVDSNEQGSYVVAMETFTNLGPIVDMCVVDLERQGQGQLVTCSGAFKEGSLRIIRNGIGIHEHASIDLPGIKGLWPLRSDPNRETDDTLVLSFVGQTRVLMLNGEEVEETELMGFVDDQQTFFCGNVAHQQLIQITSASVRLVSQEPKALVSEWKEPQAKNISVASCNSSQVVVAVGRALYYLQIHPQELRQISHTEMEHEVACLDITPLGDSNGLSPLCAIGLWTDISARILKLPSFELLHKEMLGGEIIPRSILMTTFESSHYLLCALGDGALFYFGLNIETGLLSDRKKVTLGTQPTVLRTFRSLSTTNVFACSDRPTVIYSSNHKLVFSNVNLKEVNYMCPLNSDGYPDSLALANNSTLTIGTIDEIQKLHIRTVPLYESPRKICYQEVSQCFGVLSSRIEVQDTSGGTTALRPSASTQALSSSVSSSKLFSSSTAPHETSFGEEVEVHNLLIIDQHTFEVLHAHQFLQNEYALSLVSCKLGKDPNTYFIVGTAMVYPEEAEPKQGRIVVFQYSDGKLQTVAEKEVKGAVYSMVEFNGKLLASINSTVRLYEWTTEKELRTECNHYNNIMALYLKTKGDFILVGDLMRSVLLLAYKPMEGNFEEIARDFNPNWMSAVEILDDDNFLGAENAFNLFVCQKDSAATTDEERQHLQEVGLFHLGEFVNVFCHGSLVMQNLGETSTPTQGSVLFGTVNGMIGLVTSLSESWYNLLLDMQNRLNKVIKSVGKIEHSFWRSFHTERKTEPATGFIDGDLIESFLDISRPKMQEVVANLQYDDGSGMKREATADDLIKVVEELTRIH
endpoint name: % degradation of WIZ (100-Amax)

Answered cases to consult:
INSERT INTO assay_data (molecule, endpoint_name, result) VALUES
  ('CCN1CCC(F)(F)CC1COc1ccc2c(c1)CN(C1CCC(=O)NC1=O)C2=O (single isomer, unassigned) [I-252 (Isomer 1)]', '% degradation of WIZ (100-Amax)', '58.1%'),
  ('CCC(Oc1ccc2c(c1)CN(C1CCC(=O)NC1=O)C2=O)[C@@H]1CCCN1 (single isomer, unassigned) [Compound I-44]', '% degradation of WIZ (100-Amax)', '10.3%'),
  ('O=C1CCC(N2Cc3cc(OC[C@H]4CCCCN4CC4CCOC4)ccc3C2=O)C(=O)N1 (single isomer, unassigned)', '% degradation of WIZ (100-Amax)', '55.68%');

Q) Provide one value: measured % degradation of WIZ (100-Amax) of CCN1CCC[C@H]1C(C)Oc1ccc2c(c1)CN(C1CCC(=O)NC1=O)C2=O (single isomer, unassigned) [Compound I-25]
A) 46.6%

Q) Provide one value: measured % degradation of WIZ (100-Amax) of CCN1CCC[C@H]1C(C)Oc1ccc2c(c1)CN(C1CCC(=O)NC1=O)C2=O (single isomer, unassigned) [Compound I-27]
A) 15.6%

Q) Provide one value: measured % degradation of WIZ (100-Amax) of O=C1CCC(N2Cc3cc(OC[C@H]4CCCCN4CC4CC(O)C4)ccc3C2=O)C(=O)N1 (some centres unmarked) [I-141a, I-141b]
A) 72.36%

Q) Provide one value: measured % degradation of WIZ (100-Amax) of CCN1CCC(F)(F)CC1COc1ccc2c(c1)CN(C1CCC(=O)NC1=O)C2=O (single isomer, unassigned) [I-252 (Isomer 3)]
A) 55.1%

Q) Provide one value: measured % degradation of WIZ (100-Amax) of CCN1C2CCC(C2)C1COc1ccc2c(c1)CN(C1CCC(=O)NC1=O)C2=O (single isomer, unassigned) [I-255 (Isomer 2)]
A) 28.8%

* * *

Reported Dmax values are given for each entry in this list.
molecular target: HiBit-WIZ fusion protein (Homo sapiens, UniProt O95785+Q96SW2); assay: Quantification of WIZ protein levels in HiBit tag fusion protein assay (WIZ HiBit assay in 293T cells); type: cell-based; set-up: dose or concentration left out as unconfirmed; conditions: HEK-293T, 100 minus Amax; 293T cells; read-out: % degradation of WIZ (100-Amax)
Give just the numeric value; % need not be written.

Q) Provide one value: measured Dmax of COc1cc(CN2CCCC[C@@H]2COc2ccc3c(c2)CN(C2CCC(=O)NC2=O)C3=O)ccc1C#N (stereo partly shown) [Compound I-192]
A) 62.2

* * *

target: HiBit-WIZ fusion protein (Homo sapiens, UniProt O95785+Q96SW2); assay: Quantification of WIZ protein levels in HiBit tag fusion protein assay (WIZ HiBit assay in 293T cells); type: cell-based; parameters: dose or concentration left out as unconfirmed; conditions: HEK-293T, 100 minus Amax; 293T cells; read-out: % degradation of WIZ (100-Amax)
Give T when the value for Dmax is at least 60%. Give F when it is less.

Answered examples (3):
INSERT INTO assay_data (compound, measurement_target, assigned_class) VALUES
  ('O=C1CCC(N2Cc3cc(OC[C@@H]4CCCCN4Cc4ccccc4OCC(=O)N4CCCCC4)ccc3C2=O)C(=O)N1 (stereo partly shown) [Compound I-50am]', 'HiBit-WIZ fusion protein (Homo sapiens, UniProt O95785+Q96SW2)', 'F'),
  ('O=C1CCC(N2Cc3cc(OC[C@H]4CCCCN4Cc4cnn(C5CCCCC5)c4)ccc3C2=O)C(=O)N1 (stereo partly shown) [Compound I-50ec]', 'HiBit-WIZ fusion protein (Homo sapiens, UniProt O95785+Q96SW2)', 'T'),
  ('COc1cc(CN2CCCC[C@@H]2COc2ccc3c(c2)CN(C2CCC(=O)NC2=O)C3=O)ccc1C (stereo partly shown) [Compound I-50eu]', 'HiBit-WIZ fusion protein (Homo sapiens, UniProt O95785+Q96SW2)', 'T');

Q) Threshold query (Dmax >= 60%) on O=C1CCC(N2Cc3cc(OC[C@@H]4CCCCN4Cc4cocn4)ccc3C2=O)C(=O)N1 (stereo partly shown) [Compound I-50e]
A) F

Q) Threshold query (Dmax >= 60%) on Cn1ccc2c(CN3CCCC[C@@H]3COc3ccc4c(c3)CN(C3CCC(=O)NC3=O)C4=O)cccc21 (stereo partly shown) [Compound I-50dy]
A) T

Provenance of the data: patent US11566022B2
